Kindly state IC50 for each of the entries shown.
# system.name: human HPK1 protein (Homo sapiens, UniProt Q92918)
# Construct: recombinant human HPK1 protein (a.a. 1-346) was expressed in Sf9 insect cells; GST (N); purchased Signalchem M23-11G; host or cells: Sf9 insect cells (baculovirus)
# Sequence (Q92918 1-346): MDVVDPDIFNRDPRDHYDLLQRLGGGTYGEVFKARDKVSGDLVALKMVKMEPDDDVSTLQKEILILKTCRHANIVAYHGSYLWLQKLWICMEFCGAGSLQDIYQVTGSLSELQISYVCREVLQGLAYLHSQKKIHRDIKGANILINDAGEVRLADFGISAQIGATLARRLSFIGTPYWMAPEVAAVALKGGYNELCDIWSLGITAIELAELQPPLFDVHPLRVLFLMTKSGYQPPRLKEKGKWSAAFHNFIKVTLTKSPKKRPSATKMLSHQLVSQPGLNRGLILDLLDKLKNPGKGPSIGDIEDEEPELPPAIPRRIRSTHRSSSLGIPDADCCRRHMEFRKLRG
# assay.method.text: Human HPK1 protein TR-FRET assay
# Assay type: biochemical
# assay.context: 1 mM ATP, Table 19

{"molecule": "CCN1CCN(Cc2ccc(NC(=O)N3Cc4cc(Oc5ccnc6[nH]c(C)cc56)c(F)cc4C(C)C3)cc2C(F)(F)F)CC1 (stereo not drawn) [IV-27]", "IC50": "< 500 nM"}
{"molecule": "CCN1CCN(Cc2ccc(NC(=O)N3Cc4cc(Oc5ccnc6[nH]ncc56)cnc4C(C)C3)cc2C(F)(F)F)CC1 (stereo not drawn) [VII-16]", "IC50": "< 500 nM"}

Record IC50 per entry; entries follow.
1. CCN1CCN(Cc2ccc(NC(=O)N3CCc4ccc(Oc5ccnc(NC(C)=O)c5)cc4C3)cc2C(F)(F)F)CC1 [II-14]
2. CCN1CCN(Cc2ccc(NC(=O)N3Cc4cc(Oc5ccnc6[nH]c(C)cc56)cnc4C(C)C3)cc2C(F)(F)F)CC1 (single isomer, unassigned) [VII-4]
3. Cc1cc2c(Oc3ccc4c(c3)CN(C(=O)Nc3cnc(OC5CCN(C)CC5)c(C(F)(F)F)c3)CC4C)ccnc2[nH]1 (single isomer, unassigned) [IV-39]

Reply:
["< 500 nM", "< 500 nM", "< 500 nM"]

Task item: I have this molecule here, CCN1CCN(Cc2ccc(NC(=O)N3Cc4cc(Oc5ccnc6[nH]c(C)cc56)c(F)cc4C(C)C3)cc2C(F)(F)F)CC1 (stereo not drawn) [IV-29] , and I need its recorded IC50.
Reply: < 500 nM

###

# system.name: human HPK1 protein (Homo sapiens, UniProt Q92918)
# Construct: recombinant human HPK1 protein (a.a. 1-346) was expressed in Sf9 insect cells; GST (N); purchased Signalchem M23-11G; host or cells: Sf9 insect cells (baculovirus)
# assay.method.text: Human HPK1 protein TR-FRET assay
# Type: biochemical
# assay.context: 1 mM ATP, Table 20
Give IC50 for every item shown.

Consider the reported IC50 for these compounds:
{"sample.smiles": "CCN1CCN(Cc2ccc(NC(=O)N3CCc4ncc(Oc5ncnc6[nH]c(C)cc56)cc4[C@@H]3C)cc2C(F)(F)F)CC1", "measurement.name": "IC50", "result": "500 to 5000 nM"}
{"sample.smiles": "CN1CCN(Cc2ccc(NC(=O)N3CCc4ccc(Oc5c(F)cnc6[nH]c(-c7cn[nH]c7)cc56)cc4C3)cc2C(F)(F)F)CC1", "measurement.name": "IC50", "result": "< 500 nM"}
{"sample.smiles": "CC[C@H]1CN(C(=O)Nc2ccc(CN3CCNCC3)c(C(F)(F)F)c2)Cc2cc(Oc3ccnc4[nH]c(C5CC5)cc34)cnc21", "measurement.name": "IC50", "result": "< 500 nM"}

Field: IC50. Fill in for each record below.
1. CC[C@@H]1CN(C(=O)Nc2ccc(CN3CCNCC3)c(C(F)(F)F)c2)Cc2cc(Oc3ccnc4[nH]c(C5CC5)cc34)cnc21
2. Cc1cc2c(Oc3cnc4c(c3)CN(C(=O)Nc3ccc(CN5CC6CCC(C5)N6)c(C(F)(F)F)c3)C[C@H]4C)ccnc2[nH]1
3. C[C@H]1CN(C(=O)Nc2ccc(CN3CCN(C)CC3)c(C(F)(F)F)c2)Cc2cc(Oc3ccnc4[nH]c(C(N)=O)cc34)cnc21

Reply:
1. < 500 nM
2. 500 to 5000 nM
3. < 500 nM

###

Please go through the items and note down their IC50.
# system.name: human HPK1 protein (Homo sapiens)
# Construct: recombinant human HPK1 protein (a.a. 1-346) was expressed in Sf9 insect cells; GST (N); purchased Signalchem M23-11G; host or cells: Sf9 insect cells (baculovirus)
# assay.method.text: Human HPK1 protein TR-FRET assay
# Assay type: biochemical
# assay.context: 1 mM ATP, Table 19

Here is how some compounds turned out for IC50.
{"compound": "CCN1CCN(Cc2ccc(NC(=O)N3CCc4ccc(Oc5ccnc6[nH]ncc56)cc4[C@@H]3C)cc2C(F)(F)F)CC1 [V-5]", "system.name": "human HPK1 protein (Homo sapiens)", "IC50": "< 500 nM"}
{"compound": "CCN1CCN(Cc2ccc(NC(=O)C3CCc4ccc(Oc5cc(NC)ncn5)cc4C3)cc2C(F)(F)F)CC1 (stereo not shown) [compound 12]", "system.name": "human HPK1 protein (Homo sapiens)", "IC50": "500 to 5000 nM"}
{"compound": "CCN1CCN(Cc2ccc(NC(=O)N3CCc4ncc(Oc5ncnn6cccc56)cc4C3)cc2C(F)(F)F)CC1 [compound 8]", "system.name": "human HPK1 protein (Homo sapiens)", "IC50": "< 500 nM"}

# ---- query compound ----
Task item: Request the reported IC50 associated with C[C@H]1c2cc(Oc3ccnc4[nH]ccc34)ccc2CCN1C(=O)Nc1ccc(OC2CCN(C)CC2)c(C(F)F)c1 [V-15]
Reply: 500 to 5000 nM

###

# system.name: human HPK1 protein (Homo sapiens)
# Construct: recombinant human HPK1 protein (a.a. 1-346) was expressed in Sf9 insect cells; GST (N); purchased Signalchem M23-11G; host or cells: Sf9 insect cells (baculovirus)
# assay.method.text: Human HPK1 protein TR-FRET assay
# Format: biochemical
# assay.context: 1 mM ATP, Table 19
pIC50: −log10 of the molar value.
Kindly state pIC50 for each of the entries shown.

Below, each entry is followed by its recorded pIC50 result.
{"compound": "CCN1CCN(Cc2ccc(NC(=O)N3Cc4cc(Oc5ccnc6[nH]ccc56)cnc4C(C)C3)cc2C(F)(F)F)CC1 (stereo not shown) [compound 10]", "pIC50": "> 6.30"}
{"compound": "CCN1CCN(Cc2ccc(NC(=O)N3CCc4ccc(Oc5ccnn6cccc56)cc4C3)cc2C(F)(F)F)CC1 [II-19]", "pIC50": "> 6.30"}
{"compound": "CCN1CCN(Cc2ccc(NC(=O)N3CCc4ccc(Oc5ccnc(C(N)=O)c5)cc4[C@@H]3C)cc2C(F)(F)F)CC1 [V-12]", "pIC50": "5.30 to 6.30"}
{"compound": "CCN1CCN(Cc2ccc(NC(=O)N3CCc4c(F)cc(Oc5ccnc6[nH]ccc56)cc4C3C)cc2C(F)(F)F)CC1 (stereo not shown) [IV-14]", "pIC50": "> 6.30"}
{"compound": "C[C@H]1c2cc(Oc3ccnc4[nH]ccc34)ccc2CCN1C(=O)Nc1cnc(OC2CCN(C)CC2)c(C(F)(F)F)c1 [compound 7]", "pIC50": "> 6.30"}

List the reported pIC50 of each compound below.
1. CCN1CCN(Cc2ccc(NC(=O)N3Cc4cc(Oc5ccnc6[nH]ccc56)c(F)cc4C(C)C3)cc2C(F)(F)F)CC1 (stereo not shown) [compound 4]
2. CCN1CCN(Cc2ccc(NC(=O)N3Cc4cc(Nc5ccnc(NC)c5)cnc4C(C)C3)cc2C(F)(F)F)CC1 (single isomer, unassigned) [IX-3]

Reply:
> 6.30
5.00 to 5.30

###

# system.name: human HPK1 protein (Homo sapiens, UniProt Q92918)
# Construct: recombinant human HPK1 protein (a.a. 1-346) was expressed in Sf9 insect cells; GST (N); purchased Signalchem M23-11G; host or cells: Sf9 insect cells (baculovirus)
# assay.method.text: Human HPK1 protein TR-FRET assay
# Assay type: biochemical
# assay.context: 1 mM ATP, Table 20
measurement.name: IC50

{"compound": "CCC1CN(C(=O)Nc2ccc(CN3CCN(CC)CC3)c(C(F)(F)F)c2)Cc2cc(Oc3ccnc4[nH]c(C5=CCOC5)cc34)cnc21 (stereo not drawn) [XIV-62]", "result": "< 500 nM"}
{"compound": "CC[C@@H]1CN(C(=O)Nc2ccc(CN3CCNCC3)c(C(F)(F)F)c2)Cc2cc(Oc3ccnc4[nH]c(CO)cc34)ccc21 [XV-4]", "result": "< 500 nM"}

Task item: Notebook entry, human HPK1 protein (Homo sapiens, UniProt Q92918) assay: IC50 of CCN1CCN(Cc2ccc(NC(=O)N3Cc4cc(Oc5ccnc6ncc(=O)[nH]c56)cnc4C(C)C3)cc2C(F)(F)F)CC1 (single isomer, unassigned) [XIV-8] = ?
Reply: 500 to 5000 nM
